The origin of these recorded values is patent US20260144882A1.

Molecular target: T1, human Nectin-4 extracellular antigen hNectin-4-His (human, UniProt Q96NY8 32-349)
T1 construct: C-terminal 8xHis tag included
T1 sequence: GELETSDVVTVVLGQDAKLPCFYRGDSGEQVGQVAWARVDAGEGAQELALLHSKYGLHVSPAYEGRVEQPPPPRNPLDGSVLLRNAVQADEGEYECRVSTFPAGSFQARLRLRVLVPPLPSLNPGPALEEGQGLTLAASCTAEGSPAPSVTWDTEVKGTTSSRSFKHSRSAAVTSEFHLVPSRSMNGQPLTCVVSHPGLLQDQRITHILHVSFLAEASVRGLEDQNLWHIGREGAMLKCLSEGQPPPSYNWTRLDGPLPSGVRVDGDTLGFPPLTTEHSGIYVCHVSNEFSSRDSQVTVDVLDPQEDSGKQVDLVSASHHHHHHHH
Test: ELISA, coated hNectin-4-His
measuredQuantity: EC50 (µg/mL)
The reply should contain only the number, in µg/mL.

antibody 1G8-1E10 (antibody, human IgG1, kappa, V domains shown) VH: EVQLVESGGGLVQPGGSLRLSCAASGDSFSTYAMSWVRQAPGKGLEWVSRISGSGDGKDYADSVKGRFTISRDNSKNTLYLQMNSLRAEDTAVYYCARQTEDRSYGYDLDYWGQGTLVTVSS VL: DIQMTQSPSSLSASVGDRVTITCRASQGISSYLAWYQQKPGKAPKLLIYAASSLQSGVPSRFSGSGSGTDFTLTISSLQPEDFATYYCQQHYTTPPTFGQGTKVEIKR	0.006

// next item, EC50 requested
*Q* Fill blank: measured EC50 of the binder antibody 1F3-2D2 (antibody, human IgG1, kappa, V domains shown) VH: EVQLVESGGGLVQPGGSLRLSCAASGFNFSSYGMSWVRQAPGKGLEWVSRISPYTGTTHYADSVKGRFTISRDNSKNTLYLQMNSLRAEDTAVYYCARAELLAFDVYTASDYWGQGTLVTVSS VL: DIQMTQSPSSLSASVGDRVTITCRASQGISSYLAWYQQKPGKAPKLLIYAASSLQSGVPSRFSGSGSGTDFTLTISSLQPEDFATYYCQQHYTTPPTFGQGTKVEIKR is ____.
*A* 0.015
